- Tested on: Mycobacterium tuberculosis
- Test: Antimycobacterial activity against rifampicin/isoniazid-susceptible Mycobacterium tuberculosis H37Rv ATCC 27294 at 6.25 ug/ml after 5 days by microplate alamar blue assay
- Format: functional
- Measurement Parameters: H37Rv ATCC 27294, 120 h
inhibition at 6.25 µg/mL overview
Write the numeric value and follow it with the unit.

COC(=O)[C@H](CCCNC(=O)OCc1ccccc1)NC(=O)c1cc(C23CC4CC(CC(C4)C2)C3)c2ccccc2n1 :: 66%
CSCC[C@H](N)C(=O)NNC(=O)c1cc(C23CC4CC(CC(C4)C2)C3)c2ccccc2n1 :: 59%
NNC(=O)c1cc(C23CC4CC(CC(C4)C2)C3)c2ccccc2n1 :: 99%

Query string: Reported inhibition at 6.25 µg/mL, compound N[C@@H](Cc1c[nH]c2ccccc12)C(=O)NNC(=O)c1cc(C23CC4CC(CC(C4)C2)C3)c2ccccc2n1 : ____
Result string: 56%

Query string: Another compound to look at: CCC(C)[C@H](N)C(=O)NNC(=O)c1cc(C23CC4CC(CC(C4)C2)C3)c2ccccc2n1 (stereo partly drawn)
Result string: 75%

----------
- System: Mycobacterium tuberculosis
- Test: Antimycobacterial activity against rifampicin/isoniazid-susceptible Mycobacterium tuberculosis H37Rv ATCC 27294 at 6.25 ug/ml after 5 days by microplate alamar blue assay
- Assay type: functional
- Measurement Parameters: H37Rv ATCC 27294, 120 h
Each entry below lists one item and its recorded inhibition at 6.25 µg/mL value.
Answer format: numeric, % implied, no suffix.

Answered examples (6):
CC(C)C[C@H](NC(=O)OC(C)(C)C)C(=O)NNC(=O)c1cc(C23CC4CC(CC(C4)C2)C3)c2ccccc2n1 :: 90
NNC(=O)[C@H](Cc1c[nH]c2ccccc12)NC(=O)c1cc(C23CC4CC(CC(C4)C2)C3)c2ccccc2n1 :: 60
NC(=O)c1cc(C23CC4CC(CC(C4)C2)C3)c2ccccc2n1 :: 98
CC[C@H](C)[C@H](NC(=O)c1cc(C23CC4CC(CC(C4)C2)C3)c2ccccc2n1)C(=O)NN :: 70
NC(=O)CC[C@H](N)C(=O)NNC(=O)c1cc(C23CC4CC(CC(C4)C2)C3)c2ccccc2n1 :: 45
NNC(=O)[C@H](Cc1c[nH]cn1)NC(=O)c1cc(C23CC4CC(CC(C4)C2)C3)c2ccccc2n1 :: 99

Query string: Name the reported inhibition at 6.25 µg/mL value associated with the compound CC(C)(C)OC(=O)NCC(=O)NNC(=O)c1cc(C23CC4CC(CC(C4)C2)C3)c2ccccc2n1
Result string: 60

Query string: Follow-up item: CC[C@H](C)[C@H](NC(=O)c1cc(C23CC4CC(CC(C4)C2)C3)c2ccccc2n1)C(=O)OC
Result string: 90

----------
- System: Mycobacterium tuberculosis
- Test: Antimycobacterial activity against rifampicin/isoniazid-susceptible Mycobacterium tuberculosis H37Rv ATCC 27294 at 6.25 ug/ml after 5 days by microplate alamar blue assay
- Assay type: functional
- Measurement Parameters: H37Rv ATCC 27294, 120 h
inhibition at 6.25 µg/mL of 80% or higher: 1. Under 80%: 0.

Example entries and their recorded answers appear below.
COC(=O)[C@H](CC(C)C)NC(=O)c1cc(C23CC4CC(CC(C4)C2)C3)c2ccccc2n1 :: 1
COC(=O)CNC(=O)c1cc(C23CC4CC(CC(C4)C2)C3)c2ccccc2n1 :: 0
C[C@H](NC(=O)OC(C)(C)C)C(=O)NNC(=O)c1cc(C23CC4CC(CC(C4)C2)C3)c2ccccc2n1 :: 1
CSCC[C@H](NC(=O)c1cc(C23CC4CC(CC(C4)C2)C3)c2ccccc2n1)C(=O)NN :: 0

Query string: Does the compound COC(=O)[C@H](Cc1c[nH]c2ccccc12)NC(=O)c1cc(C23CC4CC(CC(C4)C2)C3)c2ccccc2n1 have recorded inhibition at 6.25 µg/mL that is 80% or more?
Result string: 0

Query string: Again, but for C[C@H](N)C(=O)NNC(=O)c1cc(C23CC4CC(CC(C4)C2)C3)c2ccccc2n1
Result string: 0

Query string: What about this compound? COC(=O)[C@H](C)NC(=O)c1cc(C23CC4CC(CC(C4)C2)C3)c2ccccc2n1
Result string: 0

Query string: Thanks! And COC(=O)[C@H](Cc1ccc(OCc2ccccc2)cc1)NC(=O)c1cc(C23CC4CC(CC(C4)C2)C3)c2ccccc2n1 ?
Result string: 0

----------
We begin with a simple list: items and their reported inhibition at 6.25 µg/mL.
- Test system: Mycobacterium tuberculosis
- Test: Antimycobacterial activity against rifampicin/isoniazid-susceptible Mycobacterium tuberculosis H37Rv ATCC 27294 at 6.25 ug/ml after 5 days by microplate alamar blue assay
- Format: functional
- Measurement Parameters: H37Rv ATCC 27294, 120 h
Expressed in %, but write only the number.

The following compounds have reported results that may help.
CC(C)(C)OC(=O)N[C@@H](Cc1ccc(OCc2ccccc2)cc1)C(=O)NNC(=O)c1cc(C23CC4CC(CC(C4)C2)C3)c2ccccc2n1 :: 42
COC(=O)[C@H](Cc1ccccc1)NC(=O)c1cc(C23CC4CC(CC(C4)C2)C3)c2ccccc2n1 :: 60

Query string: Requested read-out: inhibition at 6.25 µg/mL. Entry: CC(C)(C)OC(=O)NCCC[C@H](NC(=O)OC(C)(C)C)C(=O)NNC(=O)c1cc(C23CC4CC(CC(C4)C2)C3)c2ccccc2n1
Result string: 75

Query string: Also need CSCC[C@H](NC(=O)OC(C)(C)C)C(=O)NNC(=O)c1cc(C23CC4CC(CC(C4)C2)C3)c2ccccc2n1 , thanks.
Result string: 56

Query string: Likewise for NCCC[C@H](N)C(=O)NNC(=O)c1cc(C23CC4CC(CC(C4)C2)C3)c2ccccc2n1 ?
Result string: 26

Query string: How about this compound: N=C(N)NCCC[C@H](N)C(=O)NNC(=O)c1cc(C23CC4CC(CC(C4)C2)C3)c2ccccc2n1
Result string: 92

Query string: Okay, and NCC(=O)NNC(=O)c1cc(C23CC4CC(CC(C4)C2)C3)c2ccccc2n1 ?
Result string: 35

Query string: Please do the same for COC(=O)[C@H](CCC(N)=O)NC(=O)c1cc(C23CC4CC(CC(C4)C2)C3)c2ccccc2n1 as well.
Result string: 55

Query string: Now consider CC(C)C[C@H](N)C(=O)NNC(=O)c1cc(C23CC4CC(CC(C4)C2)C3)c2ccccc2n1 .
Result string: 75

----------
- Test system: Mycobacterium tuberculosis
- Test: Antimycobacterial activity against rifampicin/isoniazid-susceptible Mycobacterium tuberculosis H37Rv ATCC 27294 at 6.25 ug/ml after 5 days by microplate alamar blue assay
- Type: functional
- Measurement Parameters: H37Rv ATCC 27294, 120 h
Quick reference for inhibition at 6.25 µg/mL among some compounds
Report the value in % with no unit label.

N[C@@H](Cc1ccc(O)cc1)C(=O)NNC(=O)c1cc(C23CC4CC(CC(C4)C2)C3)c2ccccc2n1 :: 48

Query string: GET /values?readout=inhibition at 6.25 µg/mL&item= CC(C)(C)OC(=O)N[C@@H](CCC(N)=O)C(=O)NNC(=O)c1cc(C23CC4CC(CC(C4)C2)C3)c2ccccc2n1
Result string: 51

Query string: Check NCCC[C@H](NC(=O)c1cc(C23CC4CC(CC(C4)C2)C3)c2ccccc2n1)C(=O)NN too.
Result string: 48

----------
- System: Mycobacterium tuberculosis
- Test: Antimycobacterial activity against rifampicin/isoniazid-susceptible Mycobacterium tuberculosis H37Rv ATCC 27294 at 6.25 ug/ml after 5 days by microplate alamar blue assay
- Format: functional
- Measurement Parameters: H37Rv ATCC 27294, 120 h
Test Readout: inhibition at 6.25 µg/mL (%)
Reply with just the number (in %).

Solved entries (count: 5):
COC(=O)[C@H](CCCCNC(=O)OCc1ccccc1)NC(=O)c1cc(C23CC4CC(CC(C4)C2)C3)c2ccccc2n1 :: 78
NNC(=O)CNC(=O)c1cc(C23CC4CC(CC(C4)C2)C3)c2ccccc2n1 :: 70
N[C@@H](Cc1c[nH]cn1)C(=O)NNC(=O)c1cc(C23CC4CC(CC(C4)C2)C3)c2ccccc2n1 :: 88
NCCCC[C@H](N)C(=O)NNC(=O)c1cc(C23CC4CC(CC(C4)C2)C3)c2ccccc2n1 :: 66
CCC(C)[C@H](NC(=O)OC(C)(C)C)C(=O)NNC(=O)c1cc(C23CC4CC(CC(C4)C2)C3)c2ccccc2n1 (stereo partly specified) :: 90

Proceed to the following item.
Query string: What value of inhibition at 6.25 µg/mL has been reported for the following compound? NNC(=O)[C@H](Cc1ccccc1)NC(=O)c1cc(C23CC4CC(CC(C4)C2)C3)c2ccccc2n1
Result string: 50

----------
- Test system: Mycobacterium tuberculosis
- Test: Antimycobacterial activity against rifampicin/isoniazid-susceptible Mycobacterium tuberculosis H37Rv ATCC 27294 at 6.25 ug/ml after 5 days by microplate alamar blue assay
- Assay type: functional
- Measurement Parameters: H37Rv ATCC 27294, 120 h
inhibition at 6.25 µg/mL overview
Enter your answer as a number in %; do not include the unit.

// worked examples, inhibition at 6.25 µg/mL included
CC(C)C[C@H](NC(=O)c1cc(C23CC4CC(CC(C4)C2)C3)c2ccccc2n1)C(=O)NN :: 83
NCCCC[C@H](NC(=O)c1cc(C23CC4CC(CC(C4)C2)C3)c2ccccc2n1)C(=O)NN :: 36
NNC(=O)[C@H](Cc1ccc(O)cc1)NC(=O)c1cc(C23CC4CC(CC(C4)C2)C3)c2ccccc2n1 :: 44
COC(=O)[C@H](CCSC)NC(=O)c1cc(C23CC4CC(CC(C4)C2)C3)c2ccccc2n1 :: 86
NNC(=O)[C@H](CCC(N)=O)NC(=O)c1cc(C23CC4CC(CC(C4)C2)C3)c2ccccc2n1 :: 50
C[C@H](NC(=O)c1cc(C23CC4CC(CC(C4)C2)C3)c2ccccc2n1)C(=O)NN :: 82
N[C@@H](Cc1ccccc1)C(=O)NNC(=O)c1cc(C23CC4CC(CC(C4)C2)C3)c2ccccc2n1 :: 81

# input for lookup
Query string: Name the reported inhibition at 6.25 µg/mL value associated with the compound CC(C)(C)OC(=O)N[C@@H](Cc1ccccc1)C(=O)NNC(=O)c1cc(C23CC4CC(CC(C4)C2)C3)c2ccccc2n1
Result string: 85
